In this section, each of the compounds is paired with its reported normalized growth.
- assay_notes: chemical genetic growth profiling, strain panel (AID 1159580);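 further: tested at 20 µM; growth read once vehicle control cultures reached saturation at 30 °C; 1 = growth at the plate median or of vehicle wells; lower values mean less growth of the strain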
- assay_conditions: S. cerevisiae deletion strains, growth OD, locus YJL129C, strain trk1, stronger effect = lower value
In all, about 5,500 compounds went through this assay and about 2,000 (36%) were called active. Roughly 18% stayed inconclusive and do not appear here. This is one part of the list.
quantity_kind: normalized growth

| compound | reported |
| --- | --- |
| CN[C@@H]1[C@H](O)[C@H](NC)[C@H]2O[C@@]3(O)C(=O)C[C@@H](C)O[C@H]3O[C@@H]2[C@H]1O | 1.01 |
| O=C(CC(=O)c1ccccc1)c1ccccc1 | 0.596 |
| NCC(N)C(=O)c1ccccc1 (stereo not drawn) | 1.04 |
| O=C(O)c1ccccc1 | 0.987 |
| COc1cc(C(C)=O)cc(OC)c1O | 1.05 |
| Cc1c(C)c2c(c(C)c1O)CCC(C)(CCCC(C)CCCC(C)CCCC(C)C)O2 (stereo not drawn) | 1.02 |
| CCCN(CCC)S(=O)(=O)c1ccc(C(=O)O)cc1 | 0.99 |
| CC(C)CCCC(C)[C@H]1CCC2C3C(=O)C=C4C[C@@H](O)CC[C@]4(C)C3CC[C@@]21C (stereo partly drawn) | 0.958 |
| Nc1ccc(S(=O)(=O)NC(=O)c2ccccc2)cc1 | 0.983 |
| CC(=O)Oc1cccc(O)c1 | 1.04 |
| CC(=O)Oc1ccc(C(c2ccc(OC(C)=O)cc2)c2ccccn2)cc1 | 1.03 |
| O=C(O)c1cccnc1 | 0.949 |
| O=C(OCc1ccccc1)c1ccccc1 | 0.933 |
